FYI, the data here is from PubChem BioAssay.

- Assay Method Text: probe aNOTCH3 binding on compound microarray – biochemical, small-molecule microarray, 635/667 nm fluorescence, primary screen (AID 1120);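 also: probe is a biotin-tagged antibody raised against NOTCH3 rather than NOTCH3 protein; score merges spot fluorescence near 667 nm with spot signal to noise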
- Setup Conditions: higher = more signal
Readout Label: composite z-score

record_smiles=C=CCOC(=O)[C@@H]1[C@H]2C(=O)O[C@H](c3ccccc3)[C@H](c3ccccc3)N2[C@H](c2ccc(OCCOC(=O)[C@H]3C[C@H]4C(=O)N[C@@H](Cc5ccccc5)C(=O)N4[C@H]3c3cccc(OCCO)c3)cc2)[C@@]12C(=O)Nc1ccc(I)cc12 reported=0.319
record_smiles=COC(=O)C(CC#Cc1ccc2c(c1)[C@]1(C(=O)N2)[C@H](c2ccc(O)cc2)N2[C@H](c3ccccc3)[C@H](c3ccccc3)OC(=O)[C@H]2[C@@H]1C(N)=O)C(=O)OC reported=-0.256
record_smiles=CC(C)(C)OC(=O)CC[C@@]1(C(=O)N2CCCCC2)N=C(c2ccc(OCCCO)cc2)O[C@@H]1c1ccccc1N=[N+]=[N-] reported=0.4
record_smiles=COC(=O)[C@]1(Cc2ccccc2CN=[N+]=[N-])N=C(c2ccc(OCCCO)cc2)O[C@@H]1c1ccccc1CN=[N+]=[N-] reported=-0.0984
record_smiles=CC(C)CNC(=O)[C@@]1(c2ccc([N+](=O)[O-])cc2)CC(=O)N(C(C)C)[C@@H]1c1ccc(CO)cc1 reported=-0.273
record_smiles=CC(C)C[C@@H]1NC(=O)[C@@H]2C[C@H](C(=O)NCc3ccc(F)cc3)[C@H](c3ccc(O)cc3)N2C1=O reported=-0.222
record_smiles=Cc1ccc(S[C@]2(C(=O)O)CC(=O)N(Cc3ccccc3C(F)(F)F)[C@@H]2c2ccc(CO)cc2)cc1 reported=-0.128
record_smiles=CCOC(=O)C1=CC[C@@H](c2ccccc2)N(S(=O)(=O)c2ccc(C)cc2)[C@H]1C=C(C)C reported=0.31
record_smiles=C=CC[C@@]1(C(=O)NCCN2CCOCC2)N=C(c2ccc(OCCCO)cc2)O[C@@H]1c1ccccc1 reported=0.291
